SETUP CONDITIONS: 338.15 K; 101.33 kPa; Liquid; Concentric cylinders viscometry
VALUE TYPE: viscosity (mPa·s)

CC[n+]1ccn(C)c1.N[C@@H](CO)C(=O)[O-] [3-ethyl-1-methyl-1H-imidazolium L-serinate]	39.63

A = CCn1cc[n+](C)c1.NCC(=O)[O-] [1-ethyl-3-methylimidazolium ammonioacetate]
B = CCn1cc[n+](C)c1.O=C([O-])[C@@H]1CCCN1 [1-ethyl-3-methyl-1H-imidazolium L-prolinate]
C = CCn1cc[n+](C)c1.C[C@H](N)C(=O)[O-] [1-ethyl-3-methylimidazolium L-alaninate]
Reorder the items by viscosity, least to greatest. Order the labels as requested and give them as your answer.
A, C, B
